Below, each entry is listed alongside its reported protein stability index.
B1: POMT2 (parent)
chain: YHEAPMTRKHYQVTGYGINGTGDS

# Variants of: B1
# Assay Protocol: protein stability index of a GFP-peptide fusion (GPS, HEK-293T) (PSI 1-6); higher = more stable;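 also: lentivirally expressed fusions sorted by FACS into six bins by GFP to DsRed ratio, PSI derived from sequencing read proportions per bin multiplied by bin number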
# Stated Conditions: c terminus: a fixed tail appended
The answer should be a number; do not append a unit.

Examples with their reported protein stability index follow.
YHEAPMTRKHYQVGGYGINGTGDS : 3.05
YTEAPMTRKHYQVTGYGINGTGDS : 2.58
YHEAPKTRKHYQVTGYGINGTGDS : 2.55

Data request: What does the data say about its protein stability index? Entry: YHEAPMTRKHYQVVGYGINGTGDS
Data returned: 1.84

Data request: Try MHEAPMTRKHYQVTGYGINGTGDS next.
Data returned: 3.71

Data request: Please give the result for YHEAPMTRKHYQVTGYGCNGTGDS too.
Data returned: 2.37
